System: SF-295
assay_procedure: NCI tumour cell line growth inhibition, 48 h
The source made the active and inactive calls. Rule as the data show it: active = GI50 up to about 1.1 µM and inactive = higher.
Measured GI50 by item

Some compounds with recorded GI50:
[in] Param item = C=CC[C@@]1(OC(C)=O)C(=O)C(=O)OC1C1COC(C)(C)O1 (stereo not given in full) ; retrieve measured GI50.
[out] 32.4 µM (inactive)

[in] Param item = NC(=O)NC(=O)c1cccc(C(=O)NC(N)=O)n1 ; retrieve measured GI50.
[out] > 100 µM (inactive)

[in] Param item = COc1c(Cl)c(Cl)c(OC)c2c1C(=O)C=CC2=O ; retrieve measured GI50.
[out] 18.5 µM (inactive)

Further cases:
[in] Param item = CN(C)C=C1C(=O)N(C)C(=O)N(C)C1=O ; retrieve measured GI50.
[out] > 100 µM (inactive)

[in] Param item = O=C(c1ccc(Cl)cc1)N(C(=S)N1CCN(c2ccccc2)CC1)C1CCCCC1 ; retrieve measured GI50.
[out] > 100 µM (inactive)

====

Measured GI50 by item
Tested on: M19-MEL
assay_procedure: NCI tumour cell line growth inhibition, 48 h
Activity calls are given as the source filed them. No stated cut-off is given here; in the data, active = GI50 up to about 1.1 µM and inactive = higher.

Some compounds with recorded GI50:
[in] Param item = N#Cc1ccc(Cc2ccccn2)cc1Cl ; retrieve measured GI50.
[out] > 100 µM (inactive)

[in] Param item = C=C/C=C(\NC(=O)C(Cl)(Cl)Cl)[Si](C)(C)C ; retrieve measured GI50.
[out] > 100 µM (inactive)

Further cases:
[in] Param item = OC1CCOc2ccccc21 (stereo not drawn) ; retrieve measured GI50.
[out] > 100 µM (inactive)

====

Measured GI50 by item
Test system: LOX IMVI
assay_procedure: NCI tumour cell line growth inhibition, 48 h
Activity calls are given as the source filed them. No stated cut-off is given here; in the data, active = GI50 up to about 1.1 µM and inactive = higher.

Some compounds with recorded GI50:
[in] Param item = S=C1CCSc2c(ccc3ccccc23)N1 ; retrieve measured GI50.
[out] > 100 µM (inactive)

[in] Param item = C=CCC12CCC(=O)[C@@]1(C)CC=C(O)C2=O (stereo not given in full) ; retrieve measured GI50.
[out] > 100 µM (inactive)

Further cases:
[in] Param item = N/C(=N\N/C=C1\C=Nc2cc(C(F)(F)F)ccc2C1=O)NO ; retrieve measured GI50.
[out] > 10 µM (inactive)

[in] Param item = O=C1c2ccccc2C2(c3ccc(Cl)cc3)N[C@@H]3CCCC[C@@H]3N12 (stereo not given in full) ; retrieve measured GI50.
[out] > 100 µM (inactive)

[in] Param item = CC[C@]1(O)C(=O)OCc2c1cc1n(c2=O)Cc2cc3c(N)cccc3nc2-1 ; retrieve measured GI50.
[out] > 100 µM (inactive)

[in] Param item = O=[N+]([O-])c1ccc(CSCc2ccc(Cl)cc2)cc1 ; retrieve measured GI50.
[out] > 100 µM (inactive)

[in] Param item = O=C1CC[C@H](NC(=O)Cc2ccccc2)C(=O)N1 [ANTINEOPLASTON A10] ; retrieve measured GI50.
[out] > 1250 µM (inactive)

[in] Param item = COc1ccc(/C=C2\C(=O)Nc3ccccc32)cc1OC ; retrieve measured GI50.
[out] 45.3 µM (inactive)

[in] Param item = COc1ccc2[nH]cc(CCNC(=O)[C@](O)(Cc3cn(C)c4ccccc34)[C@@]3(O)OCC(O)C3O)c2c1 (stereo not given in full) ; retrieve measured GI50.
[out] > 100 µM (inactive)

[in] Param item = COC(=O)NCCc1n[nH]c2c1C(=O)C=C(OC)C2=O ; retrieve measured GI50.
[out] 17.8 µM (inactive)

Taken from ChEMBL document CHEMBL1201862.
